Test system: Colon cancer organoid
Experiment: Optimized Dual-Glo assay to identify co-culture induced drug vulnerabilities using donated chemical probes and chemogenomics kinase set in O06 CRC organoid and F06 CAF mono and co-culture. […] Cell viability is reported both mono and co-culture models.
Assay type: functional, Homo sapiens
Set-up: dose or concentration left out as unconfirmed
Settings: Culture type Mono-Culture; Transduced with Renilla-dsRed lentivirus
readout.label: Cell Viability (%)
One number for each entry, in %.

compound=CCN(CCO)CCCOc1ccc2c(Nc3cc(CC(=O)Nc4cccc(F)c4)[nH]n3)ncnc2c1 target_desc="Colon cancer organoid" unit_of_measure=% readout_value=94.753

Please look at the items below and tell me Cell Viability for each one, in order.
1. CNCc1ccccc1-c1csc([C@@H](C)Nc2nc(C)nc3cc(OC)c(OC)cc23)c1
2. CCN(C(=O)CO)[C@H]1CN(/C(=N\C#N)Nc2cccc(OC(F)F)c2)N=C1c1ccc(Cl)c(Cl)c1
3. Cc1sc2c(c1C)C(c1ccc(Cl)cc1)=N[C@@H](CC(=O)NCCCCCCCCNC(=O)COc1cccc3c1C(=O)N(C1CCC(=O)NC1=O)C3=O)c1nnc(C)n1-2 (stereo partly specified)
4. CCCCN(CCCC)C(=O)CN1C[C@@H](c2cc(OC)c3c(c2)OCO3)[C@H](C(=O)O)[C@H]1CC(C)(C)CCC

1: 87.8539; 2: 127.729; 3: 11.9931; 4: 92.0951

Entry Cc1ncsc1-c1ccc(CNC(=O)[C@@H]2C[C@@H](O)CN2C(=O)[C@@H](NC(=O)CCCCNC(=O)c2ccc(-c3ccc(N4CCN(C)CC4)c(NC(=O)c4c[nH]c(=O)cc4C(F)(F)F)c3)cc2)C(C)(C)C)cc1 needs its Cell Viability filled in; supply it.
95.3362

###

For each record, write down the corresponding Cell Viability.
System: Colon cancer organoid
Assay: Optimized Dual-Glo assay to identify co-culture induced drug vulnerabilities using donated chemical probes and chemogenomics kinase set in O14 CRC organoid and F14 CAF mono and co-culture. […] Cell viability is reported both mono and co-culture models.
Format: functional, Homo sapiens
Parameters: dose or concentration left out as unconfirmed
Conditions: Culture type Mono-Culture; Transduced with Renilla-dsRed lentivirus
Answers are plain numbers, in %.

Please give Cell Viability for each item listed below.
1. COc1c(C)cc(NC(=O)c2nn(Cc3ccc(F)cc3)c3c2CN(C(=O)c2ccc[nH]2)C[C@]3(C)C(N)=O)cc1C
2. CC(C)Oc1ccc(-c2nn([C@@H](C)c3oc4ccc(F)cc4c(=O)c3-c3cccc(F)c3)c3ncnc(N)c23)cc1F [UMBRALISIB]

1: 102.007; 2: 100.314

Quick one: give me Cell Viability for each item below, same order please.
1. CCn1cc(-c2ccnc3[nH]c(-c4cccc(CN(C)C)c4)cc23)c(-c2ccc(NC(=O)N(C)C)cc2)n1 [GSK-1070916]
2. CC(=O)N1CCC(c2ccc(C(=O)NC(=N)N)cc2C(F)(F)F)CC1 [BI 9627]

1: 102.681; 2: 98.3882

###

Test system: Colon cancer organoid
Test: Optimized Dual-Glo assay to identify co-culture induced drug vulnerabilities using donated chemical probes and chemogenomics kinase set in O06 CRC organoid and F06 CAF mono and co-culture. […] Cell viability is reported both mono and co-culture models.
Assay type: functional, Homo sapiens
Parameters: dose or concentration left out as unconfirmed
Conditions: Culture type Co-Culture; Transduced with Renilla-dsRed lentivirus
Hi there, I'd appreciate the recorded Cell Viability for every entry that follows.
Answers are plain numbers, in %.

compound="CCNC(=O)c1cc2c(N3CCOCC3C)ccnc2[nH]1 (stereo not drawn)" target_desc="Colon cancer organoid" readout_label="Cell Viability" readout_value=146.353
compound=C=CC(=O)Nc1ccc2[nH]c(=O)n(C3CCN(Cc4ccc(-c5nc6cc[nH]c(=O)c6cc5-c5ccccc5)cc4)CC3)c2c1 target_desc="Colon cancer organoid" readout_label="Cell Viability" readout_value=132.383
compound=CCN(CCO)CCCOc1ccc2c(Nc3cc(CC(=O)Nc4cccc(F)c4)[nH]n3)ncnc2c1 target_desc="Colon cancer organoid" readout_label="Cell Viability" readout_value=183.999
compound=Cn1c(C2(NC(=O)c3ccc(NCC4CCCCC4)nc3)CCC2)nc2ccc(/C=C/C(=O)O)cc21 target_desc="Colon cancer organoid" readout_label="Cell Viability" readout_value=105.71
compound=CN(C)C(=O)c1ccc(-c2cc(C(=O)N[C@@H]3CCc4ccccc43)no2)cc1O target_desc="Colon cancer organoid" readout_label="Cell Viability" readout_value=93.2478

Record Cell Viability for all entries; do not skip any.
1. CCOC(=O)CCNc1cc(N2CCc3ccccc3CC2)nc(-c2cccnc2)n1
2. CN(C)CCOc1ccc(-c2nc(-c3ccncc3)c(-c3ccc4c(c3)CC/C4=N\O)[nH]2)cc1
3. C=CC(=O)Nc1ccc2[nH]c(=O)n(C3CCN(C(=O)c4ccc(-c5nc6cc[nH]c(=O)c6cc5-c5ccccc5)cc4)CC3)c2c1

124.082
96.48
129.997
